Target: Glucocorticoid receptor (Homo sapiens) (UniProt P04150)
Sequence (P04150 whole entry, looked up): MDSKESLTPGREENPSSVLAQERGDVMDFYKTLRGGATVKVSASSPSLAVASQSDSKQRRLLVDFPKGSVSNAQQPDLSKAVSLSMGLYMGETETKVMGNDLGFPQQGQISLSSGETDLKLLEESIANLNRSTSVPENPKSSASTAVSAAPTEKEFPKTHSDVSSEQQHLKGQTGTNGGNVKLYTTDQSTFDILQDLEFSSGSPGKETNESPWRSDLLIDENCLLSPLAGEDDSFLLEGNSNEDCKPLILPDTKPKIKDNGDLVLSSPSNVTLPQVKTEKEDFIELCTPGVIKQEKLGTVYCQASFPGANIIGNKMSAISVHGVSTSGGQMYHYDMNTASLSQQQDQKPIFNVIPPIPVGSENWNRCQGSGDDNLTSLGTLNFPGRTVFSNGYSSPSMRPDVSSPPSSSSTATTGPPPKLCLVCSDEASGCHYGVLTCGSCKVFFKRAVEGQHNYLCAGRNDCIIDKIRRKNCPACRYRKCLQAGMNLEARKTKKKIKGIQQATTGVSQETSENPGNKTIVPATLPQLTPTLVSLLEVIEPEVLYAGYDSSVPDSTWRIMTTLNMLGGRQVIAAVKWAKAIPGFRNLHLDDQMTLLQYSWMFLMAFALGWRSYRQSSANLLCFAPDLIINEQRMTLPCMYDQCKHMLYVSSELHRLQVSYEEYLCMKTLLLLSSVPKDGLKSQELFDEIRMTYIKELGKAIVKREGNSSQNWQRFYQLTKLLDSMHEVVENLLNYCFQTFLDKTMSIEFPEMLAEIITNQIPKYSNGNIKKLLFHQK
Test: GR-EFC Redistribution (AID 451); also: potency is read from the fitted curve at half-maximal effect
Conditions: CHO-K1 GR-EFC translocation, beta-gal luminescence, 2 h
Active and inactive are the calls of the source. Calls follow the shape of the full dose curve.
# Potency per record follows

1) O=c1c(-c2ccccc2)nc2cnc(N3CCOCC3)nc2n1-c1ccccc1
> 46 µM (inactive)

Find the recorded Potency belonging to NC(=S)NCCC[C@@H](N)C(=O)O and report it.
> 46 µM (inactive)

Request: CC1(C)S[C@@H]2[C@H](NC(=O)C3(N)CCCCC3)C(=O)N2[C@@H]1C(=O)O
> 9.22 µM (inactive)

Request: CC(C)c1ccccc1S(=O)c1ccccc1C(C)(C)O (configuration not stated)
> 9.22 µM (inactive)

Request: Nc1ncnc2c1ncn2[C@H]1O[C@@H](CO)[C@@H](O)[C@H]1N
> 9.22 µM (inactive)

Request: N[C@H]1[C@@H](C(=O)O)[C@H]2C=C[C@H]1C2
> 9.22 µM (inactive)

---

System: P93_24
Test: qHTS profiling for inhibitors of Plasmodium falciparum proliferation (AID 504749); also: nearly all actives have a fitted effect of over 60% in size
Conditions: P. falciparum in erythrocytes, SYBR Green DNA, 72 h; series mostly up to 28.7 µM
Inconclusive results are not listed. The source made the active and inactive calls. Calls follow the shape of the dose curve; as a rule, active = well fitted inhibition curve with a large enough effect; inconclusive = small, poorly fitted or top-dose-only effect; inactive = flat fitted curve, though single readings scatter.
Thanks in advance; please answer with one of these: active, inactive

Example results:
1) O=C(O)[C@@H](O)[C@@H](O)[C@H](O)[C@H](O)CO
active
2) COc1cc2nc(N(C)CCCNC(=O)[C@@H]3CCCO3)nc(N)c2cc1OC
inactive
3) CCc1ccc2c(c1)N(C[C@H](C)CN(C)C)c1ccccc1S2
active

For the next question, use this molecule.
So what was the verdict on COc1cccc2c1C(=O)c1c(O)c3c(c(O)c1C2=O)C[C@](O)(C(=O)CO)C[C@@H]3O[C@H]1C[C@H](N)[C@@H](O)[C@H](C)O1 in this test?
inactive

---

Assay: qHTS Assay for Identification of Small Molecule Agonists for Hypoxia Response Element Signaling Pathway (AID 914); also: % of control where 0% means no effect
Details: ME-180 (cervical carcinoma) HRE-bla reporter, beta-lactamase ratio, CoCl2, 17 h; stronger effect = higher value
Results filed as inconclusive are left out.
QUANTITY_MEASURED: activation (%)
Dear colleague, please return just the value in %, with no unit written.

1. O=S(=O)(O)c1cc(O)c2c(O)c(N=Nc3cccc4ccccc34)c(S(=O)(=O)O)cc2c1
-26.6
2. O=C(CSc1nc2ccccc2s1)c1sc2sc3ccccc3[n+]2c1O
-16.9

Find the recorded activation belonging to Cc1cccc(C)c1NC(=O)Nc1ccc(S(N)(=O)=O)cc1 and report it.
13.8

Request: O=C1CCC(c2ccccc2)=NN1c1nc2ccccc2s1
-16.7

Request: CCOC(=O)C(C)(C)[C@H](O)C(C)C
11.4

---

Target: Peroxisome proliferator-activated receptor alpha (Homo sapiens)
Test: qHTS assay for small molecule agonists of the peroxisome proliferator-activated receptor alpha (PPARalpha) signaling pathway (AID 651778); also: % of control where 0% means no effect
Details: PathHunter PPARalpha complementation, chemiluminescence, 6 h; stronger effect = higher value
# max response per record follows
Dear colleague, please return just the value in %, with no unit written.

Examples from the recorded data:
1. Oc1ccc(O)c2c(O)cccc12
5.73
2. Cc1ccc(N)cc1[N+](=O)[O-]
-0.223
3. Nc1cc(C(=O)O)c(O)c(S(=O)(=O)O)c1
-5.08
4. CC(=O)Nc1cccc(C)c1
-3.01

Notebook: pull reported max response for Peroxisome proliferator-activated receptor alpha (Homo sapiens), entry CCC(Cl)CC(Cl)C(Cl)C(Cl)C(Cl)C(C)Cl (configuration not stated)
-3.58

---

# Potency per record follows
Target: Glucocorticoid receptor (Homo sapiens)
Experiment: GR-GFP Redistribution (AID 450); also: potency is read from the fitted curve at half-maximal effect
Conditions: U2OS GR-GFP nuclear translocation, laser cytometry, 2 h
The source made the active and inactive calls.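 How the source made its calls: active means compounds whose dose series gives a full or clear partial fitted curve of increased nuclear translocation; inconclusive means weak partial curve or effect only at the top dose; inactive means no dose-dependent translocation response.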

1. COC(=O)CC[C@@H](C)[C@H]1CC[C@H]2[C@H]3CC[C@H]4C[C@@H]5CC[C@@]4(C)C3(O5)[C@@H](Br)[C@@H](Br)[C@@]12C
> 46 µM (inactive)
2. CC(=O)C=NCC(=O)O
> 46 µM (inactive)
3. COc1ccc2nc(NCN3C(=O)c4ccccc4C3=O)sc2c1
> 46 µM (inactive)
4. COCCn1c(=O)c(-c2cc(F)cc(F)c2)nc2cnc(Oc3ccccc3)nc21
> 9.22 µM (inactive)
5. CC(C)[C@H]1C(=O)C(C(N)=O)=C(O)[C@]2(O)C(=O)C3=C(O)c4c(O)ccc(N(C)C)c4C[C@H]3C[C@@H]12
> 46 µM (inactive)
6. CC(=O)OC(C)(C)N=Nc1ccc(Br)cc1
> 46 µM (inactive)

Find the recorded Potency belonging to Nc1ncnc2nn([C@H]3O[C@@H](CO)[C@@H](O)[C@H]3O)nc12 and report it.
> 46 µM (inactive)

Request: C=C[C@]1(C)C[C@H](OC(=O)CO)[C@]2(C)C3C(=O)CC[C@]3(CC[C@H]2C)[C@H](C)[C@H]1O (some centres undefined)
> 46 µM (inactive)

Request: N=C(N)SCc1cccc(-c2nc3ccccc3c(=O)o2)c1
> 46 µM (inactive)

---

Assay: Cell Viability - LYMP2-015 (AID 971);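 also: cells exposed to compound for 24 h; nearly all actives have a fitted effect of over 55% in size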
Conditions: LYMP2-015 lymphoblastoid cell viability; series mostly up to 92.2 µM
Records with an inconclusive call do not appear. Activity calls are given as the source filed them. The call rests on the fitted dose curve; in most records, active means well fitted cell-killing curve with a large enough effect; inconclusive means small, poorly fitted or top-dose-only effect; inactive means flat fitted curve, though single readings scatter.
Thanks in advance; please answer with one of these: TRUE for active, FALSE for inactive

Example results:
1) CC(/C=C/C=C(C)/C=C/C(=O)O)=C\C=C\C=C(C)\C=C\C=C(C)\C=C\C(=O)O
FALSE
2) CCCCOC(=O)COc1ccc(Cl)cc1Cl
FALSE
3) c1c[nH]cn1
FALSE
4) C=CC(=O)OCCCCCCOC(=O)C=C
TRUE
5) COc1cc(-c2ccc(N=C=O)c(OC)c2)ccc1N=C=O
FALSE
6) Brc1ccc(-c2ccccc2)cc1
FALSE

For the next question, use this molecule.
So what was the verdict on CCCC(=O)OC(=O)CCC in this test?
FALSE

---

Experiment: Cell Viability - N2a (AID 540);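 also: cells exposed to compound for 40 h at 37 °C; plate controls were DMSO alone for no effect and tamoxifen control for full effect; nearly all actives have a fitted effect of over 45% in size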
Details: N2a mouse neuroblastoma cell viability; at 92.2 µM (top of the series)
Results filed as inconclusive are left out.
# activity change, negative = cytotoxicity per record follows
Dear colleague, please return just the value in %, with no unit written.

1. O=C(Cl)c1ccc([N+](=O)[O-])cc1
7.26
2. Cc1cc(=O)oc2cc(O)cc(O)c12
-0.482
3. CCOC(=O)C1OC1c1ccccc1 (centres undefined)
0.144
4. Oc1cc2c(cc1O)[C@H]1c3ccc(O)c(O)c3OC[C@@]1(O)C2
-91.8
5. CC(=O)OCc1ccc2c(c1)OCO2
-15.3

Find the recorded activity change, negative = cytotoxicity belonging to CC(/C=C/C=C(C)/C=C/C(=O)O)=C\C=C\C=C(C)\C=C\C=C(C)\C=C\C(=O)O and report it.
-5.79

Request: CCN(CC)c1ccc(N)cc1
-118

---

Biological target: Cytochrome P450 2C19 (Homo sapiens)
Assay: qHTS Assay for Inhibitors and Substrates of Cytochrome P450 2C19 (AID 899); also: nearly all actives have a fitted effect of over 60% in size
Details: recombinant CYP2C19, luciferin-H EGE luminescence; series mostly up to 11.4 µM
Records with an inconclusive call do not appear. Active and inactive are the calls of the source. Calls come from the whole dose curve; as a rule, active = well fitted inhibition curve with a large enough effect; inconclusive = small, poorly fitted or top-dose-only effect; inactive = no such curve, though single readings can be large or run the other way.
Thanks in advance; please answer with one of these: active, inactive

So what was the verdict on O=C(O)c1ccc(Oc2nc3ccccc3s2)cc1 in this test?
active

Request: CN(Cc1cc(Cl)cc(Cl)c1O)Cc1c(O)ccc2ccccc12
active

Request: O=C(O)CCCc1ccc2ccc3ccccc3c2c1
inactive

---

Experiment: NFAT Signaling Pathway (AID 444);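 also: carbachol stimulus at about its EC50 of 1 µM final; % is scaled to controls: 0 for no effect and ±100 for the full control effect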
Conditions: Jurkat NFAT-bla M1, carbachol, beta-lactamase ratio, 5 h; at 7.69 µM (top of the series) unless noted
Results filed as inconclusive are left out. The source made the active and inactive calls. Calls come from the whole dose curve; as a rule, active = well fitted curve in either direction with a large enough effect (not every such curve was filed as active); inconclusive = small, poorly fitted or top-dose-only effect, or another doubt; inactive = flat fitted curve, though single readings scatter.
QUANTITY_MEASURED: activity change, negative = inhibition

Examples from the recorded data:
1. Cc1cccc(CNc2ncnc3[nH]ncc23)c1
-3.71% (inactive)
2. CN(C)c1ccc(-c2nc(N3CCNCC3)c3ccccc3n2)cc1
5.32% (inactive)
3. O=C(C[n+]1ccc2ccccc2c1)c1ccc2ccc3ccccc3c2c1
-15.5% (inactive)

Consider the record given below.
Find the recorded activity change, negative = inhibition belonging to O=C(O)/C(=C\c1ccc(O)cc1)c1cccc2ccccc12 and report it.
2.46% (inactive)

---

Molecular target: Cytochrome P450 1A2 (Homo sapiens) (UniProt P05177)
Sequence (P05177 whole entry, looked up): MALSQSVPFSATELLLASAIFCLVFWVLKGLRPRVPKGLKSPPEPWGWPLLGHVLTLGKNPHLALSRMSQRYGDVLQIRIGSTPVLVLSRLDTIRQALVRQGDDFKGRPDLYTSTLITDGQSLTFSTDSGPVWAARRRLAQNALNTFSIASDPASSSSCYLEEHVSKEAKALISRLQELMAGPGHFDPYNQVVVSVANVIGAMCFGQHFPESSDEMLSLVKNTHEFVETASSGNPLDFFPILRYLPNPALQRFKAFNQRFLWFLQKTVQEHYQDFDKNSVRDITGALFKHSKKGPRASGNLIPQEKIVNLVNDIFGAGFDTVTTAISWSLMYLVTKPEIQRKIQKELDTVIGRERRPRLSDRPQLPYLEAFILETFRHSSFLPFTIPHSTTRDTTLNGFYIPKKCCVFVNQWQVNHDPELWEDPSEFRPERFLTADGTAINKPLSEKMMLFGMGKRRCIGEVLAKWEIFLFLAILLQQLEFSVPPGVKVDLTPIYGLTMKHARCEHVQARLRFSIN
Assay: p450-cyp1a2 (AID 410);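 also: -100% = full effect of reference inhibitor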
Conditions: recombinant CYP1A2, luciferin-ME demethylation, luminescence; series mostly up to 11.4 µM
Results filed as inconclusive are left out. Activity calls are given as the source filed them. The call rests on the fitted dose curve.
QUANTITY_MEASURED: activity change, negative = inhibition

Examples from the recorded data:
1) COC(=O)CCCC(=O)O
-7.3% [at 2.29 µM] (inactive)
2) O=S(=O)(C[C@H](O)C(Cl)(Cl)Cl)NNc1ccccc1
0.8% [at 2.29 µM] (inactive)
3) NCCNCC1CCNCC1
-3.6% [at 2.29 µM] (inactive)
4) COc1ccc2[nH]c3cc4c(=O)c5cc(OC)ccc5[nH]c4cc3c(=O)c2c1
-6% [at 2.29 µM] (inactive)
5) COc1ccc([C@@H](Nc2ncccn2)c2cc3c(cc2O)OCO3)cc1
-14.3% [at 2.29 µM] (inactive)
6) Cc1cc(C)cc(C(=N)c2ccccc2Cc2cccc3ccccc23)c1
-5.4% [at 2.29 µM] (inactive)
7) Nc1ncnc2c1nc(-c1ccccc1)n2[C@H]1O[C@@H](CO)[C@@H](O)[C@H]1O
-16.8% [at 2.29 µM] (inactive)
8) O=C(O)C(Sc1ccc(Cl)cc1)Sc1ccc(Cl)cc1
-27.8% [at 2.29 µM] (inactive)

Find the recorded activity change, negative = inhibition belonging to CN(C)C[C@H]1CCC2=C(C1=O)C(c1ccc(Cl)c(Cl)c1)C1=C(CC[C@H](CN(C)C)C1=O)O2 and report it.
-2% [at 2.29 µM] (inactive)

Request: Cc1ccc(S(=O)(=O)Oc2cc(N)c3c(n2)CCC3)cc1
-19.4% [at 2.29 µM] (inactive)

Request: CN(C)CCCNc1cc(O)c2c(c1O)C(=O)c1ccccc1C2=O
-23.1% [at 2.29 µM] (inactive)

Request: N[C@@H](Cc1ccnnc1)C(=O)O
-10.6% [at 2.29 µM] (inactive)

Origin of the recorded values: PubChem BioAssay (NCATS)
